All values here come from DBAASP.

Target or system Acinetobacter baumannii ATCC 19606; recorded quantity MIC.
property.label: MIC

| structure | property.label | recorded.result |
| --- | --- | --- |
| CC[C@H](C)[C@H](N)C(=O)N[C@@H](CO)C(=O)N[C@@H](CCCCN)C(=O)N[C@@H](CCCN=C(N)N)C(=O)N[C@H](C(=O)N[C@@H](CC(C)C)C(=O)N[C@H](C(=O)NCC(=O)N[C@@H](CCCCN)C(=O)N[C@@H](CCCCN)C(N)=O)[C@@H](C)O)[C@@H](C)CC | MIC | > 224 µM |
| CC[C@H](C)[C@@H]1NC(=O)CNC(=O)[C@H](CCCN=C(N)N)NC(=O)[C@H](Cc2ccc(O)cc2)NC(=O)[C@@H]2CSSC[C@H](NC1=O)C(=O)N[C@@H](Cc1ccc(O)cc1)C(=O)N[C@@H](CCCN=C(N)N)C(=O)N[C@@H](CCCN=C(N)N)C(=O)N[C@H](C(=O)N[C@@H](CCCN=C(N)N)C(=O)O)CSSC[C@H](NC(=O)[C@H](Cc1c[nH]c3ccccc13)NC(=O)[C@@H](N)CCCCN)C(=O)N[C@@H](Cc1ccccc1)C(=O)N[C@@H](CCCN=C(N)N)C(=O)N[C@@H](C)C(=O)N2 | MIC | 0.112 µM |
| CC(C)C[C@H](NC(=O)[C@H](CC(C)C)NC(=O)[C@@H](NC(=O)[C@H](CCCCN)NC(=O)[C@H](Cc1ccccc1)NC(=O)[C@H](CCCN=C(N)N)NC(=O)[C@H](CCCCN)NC(=O)[C@H](CC(C)C)NC(=O)[C@H](CC(C)C)NC(=O)CN)[C@@H](C)O)C(N)=O | MIC | 256 µM |
| CC[C@H](C)[C@H](NC(=O)[C@H](CCCN=C(N)N)NC(=O)[C@H](CCCN=C(N)N)NC(=O)[C@H](CC(C)C)NC(=O)[C@H](Cc1ccccc1)NC(=O)[C@H](Cc1ccccc1)NC(=O)[C@@H](N)Cc1ccccc1)C(=O)N[C@@H](Cc1ccccc1)C(=O)O | MIC | > 100 µM |
| CC(C)C[C@H](NC(=O)[C@H](CC(C)C)NC(=O)[C@H](CCCCN)NC(=O)[C@H](CCCCN)NC(=O)[C@H](CC(C)C)NC(=O)[C@@H](NC(=O)[C@H](CCCCN)NC(=O)[C@H](CC(C)C)NC(=O)[C@@H](N)Cc1ccccc1)C(C)C)C(N)=O | MIC | 29.1 µM |
| CC(C)C[C@H](NC(=O)[C@H](CC(C)C)NC(=O)[C@H](CCCCN)NC(=O)[C@H](CCCCN)NC(=O)[C@H](CC(C)C)NC(=O)[C@@H]1CCCN1C(=O)[C@H](CCCCN)NC(=O)[C@H](CC(C)C)NC(=O)[C@@H](N)Cc1ccccc1)C(N)=O | MIC | > 116 µM |
| CC(C)C[C@H](NC(=O)[C@H](CC(C)C)NC(=O)[C@H](CCCCN)NC(=O)[C@H](CCCCN)NC(=O)[C@H](CC(C)C)NC(=O)[C@H](CC(N)=O)NC(=O)[C@H](CCCCN)NC(=O)[C@H](CC(C)C)NC(=O)[C@@H](N)Cc1ccccc1)C(N)=O | MIC | > 115 µM |
